Numbers sourced from the METLIN SMRT retention time set (Domingo-Almenara et al. 2019).

# Method summary: gradient 5% acetonitrile 3 min, to 50% in 2 min, to 85% in 15 min, held 3 min, 100 µL/min
# Applied conditions: column: Zorbax Extend-C18 2.1 x 50 mm; eluents: water / acetonitrile, 0.1% formic acid
RP-LC retention time for assorted compounds
Number in s, nothing else.

Consider the worked cases shown below.
Cc1nc(CC(=O)NCc2ccc(F)cc2F)sc1C(=O)NC1CC1 : 693
COc1ccc(CNC(=O)c2nnc(-c3ccc(S(=O)(=O)N4CCC(C)CC4)cc3)o2)cc1 : 1020
CCc1nc(OCC(=O)NCc2cccc(C)c2)c2c(C)c(C)oc2n1 : 947
CC(C)Oc1ccc(-c2noc(CN3C(=O)C(C)Oc4ccccc43)n2)cc1 (centres undefined) : 1200
O=C(NCc1cccnc1)c1cccn2c(=O)c3cc(Cl)ccc3nc12 : 657

(Q) Sample CCN1c2cc(Cl)ccc2C(=O)NC12CCN(C(=O)Nc1cc(C)ccc1OC)CC2 — what was its RP-LC retention time?
(A) 916

* * *

RP-LC retention time for assorted compounds
# Method summary: gradient 5% acetonitrile 3 min, to 50% in 2 min, to 85% in 15 min, held 3 min, 100 µL/min
# Applied conditions: column: Zorbax Extend-C18 2.1 x 50 mm; eluents: water / acetonitrile, 0.1% formic acid
Number in s, nothing else.

Consider the worked cases shown below.
COc1cc2c(cc1CNC(=O)C(=O)c1c[nH]c3ccccc13)OCCCO2 : 1320
CCOC(=O)c1ccc(NC(=O)CN2CC(c3nc(-c4cccc(Cl)c4)no3)C2)cc1 : 650
CCN1C(=O)c2ccccc2Oc2ccc(C(=O)NCCc3ccccc3)cc21 : 845
Cn1cnc2c(C(=O)N3CCN(c4ccccn4)CC3)nn(-c3ccccc3)c2c1=O : 599
CCOC(=O)c1[nH]c(C)c(CCC(=O)N2CCN(C(=O)c3ccco3)CC2)c1C : 709
CN(C)C(=O)c1n[nH]c2c1CN(S(=O)(=O)c1ccccc1)CC2 : 660

(Q) Sample CN(C)c1ncncc1N1CCC(C(=O)N2CCCC2)CC1 — what was its RP-LC retention time?
(A) 567

(Q) Sample Cc1occc1C(=O)N1CC(F)(F)C[C@H]1c1nc(C2CC2)no1 — what was its RP-LC retention time?
(A) 726

(Q) Sample Cn1cc(S(=O)(=O)N2CCCC2)cc1C(=O)N1CCC(Cc2ccccc2)CC1 — what was its RP-LC retention time?
(A) 960

(Q) Sample COc1cccc2c1C(=O)c1c(O)c3c(c(O)c1C2=O)C[C@@](O)(/C(C)=N\O)C[C@@H]3OC1CC(N)C(O)C(C)O1 (stereo not given in full) — what was its RP-LC retention time?
(A) 681

* * *

# Method summary: gradient 5% acetonitrile 3 min, to 50% in 2 min, to 85% in 15 min, held 3 min, 100 µL/min
# Applied conditions: column: Zorbax Extend-C18 2.1 x 50 mm; eluents: water / acetonitrile, 0.1% formic acid
Measured property: RP-LC retention time
Remember to follow the number with its unit.

Consider the worked cases shown below.
Cc1cccn2cc(-c3cccc(S(=O)(=O)N4CCCCC4)c3)nc12 : 700 s
CCOc1ccccc1-c1nc(C2CC(=O)N(c3ccc(C)cc3)C2)no1 (stereo not given) : 1090 s
CCN1CCCCc2cc(C(=O)NCCC3CCN(C(C)C)CC3)sc21 : 680 s
CN(C)C(=O)c1csc(S(=O)(=O)N2CCC(C(=O)N3CCN(c4ccccc4)CC3)CC2)c1 : 768 s
CCOC(=O)COC(=O)c1cn(-c2ccc(OCC)cc2)c(=O)c2ccccc12 : 1070 s
COC(=O)C1=C(N)C(=O)N(CCc2ccc(OC)c(OC)c2)C1 : 648 s
Cc1ccc(CNC(=O)C2(C)CCCN(C(=O)Nc3ccc(C)c(Cl)c3)C2)cc1 (stereo not given) : 1110 s
CN1C(=O)C(c2c(-c3ccc(Cl)cc3)[nH]c3[nH]c(=O)[nH]c(=O)c23)c2ccccc21 (stereo not given) : 716 s

(Q) Sample CCCN(C)S(=O)(=O)c1c(C)nn(-c2ccc(-c3ccccc3)nn2)c1C — what was its RP-LC retention time?
(A) 1080 s

(Q) Sample CCc1nc(NC(=O)Cn2nc3c(cc2=O)CCCC3)sc1C — what was its RP-LC retention time?
(A) 764 s

* * *

# Method summary: gradient 5% acetonitrile 3 min, to 50% in 2 min, to 85% in 15 min, held 3 min, 100 µL/min
# Applied conditions: column: Zorbax Extend-C18 2.1 x 50 mm; eluents: water / acetonitrile, 0.1% formic acid
Consider the cut-off 900 s. If the recorded RP-LC retention time is strictly smaller, the label is YES; if not, the label is NO.

(Q) Please state whether RP-LC retention time is below 900 s for COc1ccc(N2CCN(CC(O)c3cccc(OC)c3)CC2)cc1 (centres undefined)
(A) YES

(Q) Please state whether RP-LC retention time is below 900 s for Cc1sc(NC(=O)Cn2c(=O)sc3ccccc32)nc1-c1ccccc1
(A) NO

(Q) Please state whether RP-LC retention time is below 900 s for O=C(NCCCN1CCCC1=O)C1CCCN(c2ncnc3c2nc2n3CCCCC2)C1 (centres undefined)
(A) YES

(Q) Please state whether RP-LC retention time is below 900 s for c1ccc(-c2nc(-c3ccncc3)no2)c(OC2CCN(Cc3ccc4c(c3)CCO4)C2)c1 (centres undefined)
(A) YES

(Q) Please state whether RP-LC retention time is below 900 s for CCCn1cc(S(=O)(=O)Nc2ccccc2)c2cccnc21
(A) YES

(Q) Please state whether RP-LC retention time is below 900 s for Cc1ccc(NC(=O)Cn2cnc3c(sc4nc(-c5ccccc5)ccc43)c2=O)cc1
(A) YES

(Q) Please state whether RP-LC retention time is below 900 s for CC(C)CC(=O)Nc1c(-c2ccc(F)cc2)nc2ccccn12
(A) YES

(Q) Please state whether RP-LC retention time is below 900 s for CCOC(=O)c1cc(S(=O)(=O)N2CCCC2C(=O)Nc2ccc(F)cc2C)cn1C (centres undefined)
(A) NO

* * *

# Method summary: gradient 5% acetonitrile 3 min, to 50% in 2 min, to 85% in 15 min, held 3 min, 100 µL/min
# Applied conditions: column: Zorbax Extend-C18 2.1 x 50 mm; eluents: water / acetonitrile, 0.1% formic acid
RP-LC retention time for assorted molecules
Number in s, nothing else.

COc1ccc(NC(=O)Cn2cnc3nc4c(cc3c2=O)CCCC4)c(OC)c1 : 709
COC(=O)c1ccc2c(=O)n(-c3cc(C)cc(C)c3)c(N3CCCC3)nc2c1 : 1240
Cc1cccc(S(=O)(=O)N2CCC(N3CCN(Cc4ccccc4)C(=O)C3=O)CC2)c1 : 838
CCN(Cc1ccccc1)S(=O)(=O)c1cc(-c2nc(C)cs2)sc1C : 1200

(Q) Sample Cc1ccccc1CNC(=O)C1(C)CCCN(C(=O)Nc2cc(Cl)ccc2C)C1 (centres undefined) — what was its RP-LC retention time?
(A) 1090

(Q) Sample CCN(C(=O)C1CCCN1S(=O)(=O)c1cc2c(cc1Cl)NC(=O)CO2)c1ccccc1 (centres undefined) — what was its RP-LC retention time?
(A) 836

(Q) Sample CCOc1ccc(NC(=O)CSc2nccc(N3CCN(c4cccc(OC)c4)CC3)n2)cc1 — what was its RP-LC retention time?
(A) 765

(Q) Sample COc1cccc(CNC(=O)C2(C)CCCN(C(=O)Nc3cc(OC)ccc3OC)C2)c1 (centres undefined) — what was its RP-LC retention time?
(A) 844

(Q) Sample COCCOCC(=O)N1CC(Oc2ccc(-c3nc(C)no3)cc2)C1 — what was its RP-LC retention time?
(A) 679

(Q) Sample Cc1sc(-c2nnc(C3CCC3)o2)cc1NC(=O)c1ccc(C#N)cc1 — what was its RP-LC retention time?
(A) 965

(Q) Sample O=C(CC1CCN(C(=O)Nc2ccccc2)CC1)N1CCN(c2ccccn2)CC1 — what was its RP-LC retention time?
(A) 603

(Q) Sample O=C(NCc1ccc(F)cc1F)C1CCCN(c2nc3ccsc3c(=O)n2-c2ccc(F)cc2)C1 (centres undefined) — what was its RP-LC retention time?
(A) 885

(Q) Sample COc1ccccc1/C=C/c1nc(-c2ccc3oc(C)nc3c2)no1 — what was its RP-LC retention time?
(A) 1080

(Q) Sample O=C(Cc1nnc2cc(-c3nc(C4CC4)no3)ccn12)N1CCc2ccccc2C1 — what was its RP-LC retention time?
(A) 780

(Q) Sample COc1cccc(-c2noc(C3CCCN3C(=O)Nc3ccc4c(c3)OCO4)n2)c1 (centres undefined) — what was its RP-LC retention time?
(A) 896

(Q) Sample CC(=O)Nc1ccc(S(=O)(=O)NCC2CCN(Cc3cccs3)CC2)c(C)c1 — what was its RP-LC retention time?
(A) 547

(Q) Sample CC1=NS(=O)(=O)N(C)C=C1C(=O)OCc1c(F)cccc1Cl — what was its RP-LC retention time?
(A) 968

(Q) Sample CCC(CC)C(=O)Nc1nc(-c2ccc3c(c2)N(C)C(=O)CO3)c(C)s1 — what was its RP-LC retention time?
(A) 962

(Q) Sample CCNc1cc(N2CCCC(CCC(=O)NC(CC)CC)C2)ncn1 (centres undefined) — what was its RP-LC retention time?
(A) 658
